Tested on: Staphylococcus aureus MW2 (mecA+)
measurementDescription: IC50 (growth, competition assay)
conditionLabel: fluorescent label: DsRed; cefoxitin: subinhibitory
propertyLabel: IC50 (µM)
// return numeric value only (unit: µM, not printed)

The following molecules have reported results that may help.
Cc1ccc(C(=O)N(CCCN)[C@@H](c2oc3cc(Cl)ccc3c(=O)c2Cc2ccccc2)C(C)C)cc1 ... 30.8
COc1cc(C)c(C(=O)Oc2cc(C)c(C(=O)O)c(O)c2C)c(OC)c1C ... 31
O=c1cc(O)cc(/C=C/c2ccc(O)c(O)c2)o1 ... 58.9
CN1C[C@H](CNC(=O)OCc2ccccc2)C[C@@H]2c3cccc4c3c(cn4C)C[C@H]21 ... 50.7

Okay, next one:
Query: Reported IC50 for O=S1(=O)N(CCN2CC=C(c3c[nH]c4cc(F)ccc34)CC2)c2cccc3c2N1CCC3 : what is it?
Result: 39

----------
System: Staphylococcus aureus MW2 delta-mecA (mecA-)
measurementDescription: IC50 (growth, competition assay)
conditionLabel: fluorescent label: DsRed; cefoxitin: subinhibitory
Measured pIC50 values are reported for all entries that follow.
Note: pIC50 values are expressed as the negative base-10 logarithm of concentration in M.

The following compounds have reported results that may help.
CSc1ccc2c(c1)N(CCC1CCCCN1C)c1ccccc1S2 (stereo not given) [MELLARIL] ... 4.72
CC(C)(C)c1cc(C=C(C#N)C#N)cc(C(C)(C)C)c1O ... 4.45
CC1(C)C(=O)N(CCN2CCC(C(=O)c3ccc(F)cc3)CC2)c2ccccc21 ... 4.27
C[C@@H](O[C@H]1OCCN(Cc2n[nH]c(=O)[nH]2)[C@H]1c1ccc(F)cc1)c1cc(C(F)(F)F)cc(C(F)(F)F)c1 [Aprepitant (MK-0869)] ... 4.72
CCN(CC)C(=S)SSC(=S)N(CC)CC [ANTABUSE] ... 4.91
O=C1[C@H](CC[C@H](O)c2ccc(F)cc2)[C@@H](c2ccc(O)cc2)N1c1ccc(F)cc1 [Ezetimibe (Zetia)] ... 4.60
O=C(O[C@@H]1Cc2c(O)cc(O)cc2O[C@@H]1c1cc(O)c(=O)c2c(O)c(O)cc([C@H]3Oc4cc(O)cc(O)c4C[C@H]3OC(=O)c3cc(O)c(O)c(O)c3)c2c1)c1cc(O)c(O)c(O)c1 [THEAFLAVIN DIGALLATE] ... 4.08
C=C[C@](C)(O)CC[C@@H]1[C@@]2(C)CCCC(C)(C)[C@@H]2CC[C@@]1(C)O [Sclareol] ... 4.60
CN(Cc1cnc2nc(N)nc(N)c2n1)c1ccc(C(=O)N[C@@H](CCC(=O)O)C(=O)O)cc1 [Abitrexate (Methotrexate)] ... 4.44

Query: Reported pIC50 for CCN(CC)CCOc1ccc(Nc2ncc3cc(-c4c(Cl)cccc4Cl)c(=O)n(C)c3n2)cc1 : what is it?
Result: 4.51

----------
Tested on: Staphylococcus aureus MW2 (mecA+)
measurementDescription: IC50 (growth, competition assay)
conditionLabel: fluorescent label: DsRed; cefoxitin: subinhibitory
Binary label based on IC50 with cut-off 30 µM: below gives 1 (yes), not below gives 0 (no).

COC(=O)[C@@]1(C)CCC[C@]2(C)c3ccc(O)c(C(C)C)c3CCC12 (stereo partly specified) ... 1 (yes)

Query: Is the reported IC50 for CN1CCN(CCCN2c3ccccc3Sc3ccc(C(F)(F)F)cc32)CC1 [STELAZINE] strictly below 30 µM?
Result: 0 (no)

Query: Is the reported IC50 for CO/N=C(\C(=O)N[C@@H]1C(=O)N2C(C(=O)O)=C(CSc3nc(=O)c(O)nn3C)CS[C@H]12)c1csc(N)n1 [Ceftriaxone sodium] strictly below 30 µM?
Result: 1 (yes)
